Target: T1, non-activatable Factor X (FXn) (Homo sapiens (Human), UniProt P00742 41-488, single biotin on the C-terminal BioTag)
T1 construct: also called BIIB-FX-015
Experiment: BLI; class meaning: paragraph 285
QUANTITY KIND: binding result

BIIB-12-1295 (antibody, V domains shown, IgG) VH: QVQLVQSGAEVKKPGASVKVSCKASGYTFTSYYMVWVRQAPGQGLEWMGIINPSGGSTSYAQKFQGRVTMTRDTSTSTVYMELSSLRSEDTAVYYCARVGGATTGKIGYGMDVWGQGTTVTVSS VL: DIQMTQSPSSVSASVGDRVTITCRASQGISSWLAWYQQKPGKAPKLLIYAASNLQSGVPSRFSGSGSGTDFTLTISSLQPEDFATYYCQQAISLPITFGGGTKVEIK
binds
BIIB-12-926 (antibody, V domains shown, IgG) VH: QVQLVQSGAEVKKPGASVKVSCKASGYTFTSYYMHWVRQAPGQGLEWMGIINPSGGSTSYAQKFQGRVTMTRDTSTSTVYMELSSLRSEDTAVYYCARDGRMARGASPDYWGQGTLVTVSS VL: EIVMTQSPATLSVSPGERATLSCRASQSVSSNLAWYQQKPGQAPRLLIYGASTRATGIPARFSGSGSGTEFTLTISSLQSEDFAVYYCQQHSFWPPTFGGGTKVEIK
binds
BIIB-12-1332 (antibody, V domains shown, IgG) VH: QVQLVQSGAEVKKPGASVKVSCKASGYTFTSYYMSWVRQAPGQGLEWMGIINPSGGSTSYAQKFQGRVTMTRDTSTSTVYMELSSLRSEDTAVYYCARLGRKSRVFDIWGQGTMVTVSS VL: DIQMTQSPSSVSASVGDRVTITCRASQGISSWLAWYQQKPGKAPKLLIYAASSLQSGVPSRFSGSGSGTDFTLTISSLQPEDFATYYCQQVNSFPLTFGGGTKVEFK
binds

All values here come from patent US20230192896A1.
